Compiled record: IC50 values for Protein arginine N-methyltransferase 5 (Homo sapiens, UniProt O14744) across several sources.

Known IC50 results, listed for orientation:
givenSmiles: Cc1nc(N)c2ccn([C@@H]3C=C(COc4cc(F)c5cc(Cl)c(N)nc5c4)[C@@H](O)[C@H]3O)c2n1
experimentalSystem: Protein arginine N-methyltransferase 5 (Homo sapiens, UniProt O14744)
IC50: 0.4 to 0.75 nM
//
givenSmiles: CNc1ccc2ccc(OCc3cncc(-n4cc(C5CCCC5)c5cncnc54)c3)cc2n1
experimentalSystem: Protein arginine N-methyltransferase 5 (Homo sapiens, UniProt O14744)
IC50: > 1000 nM
//
givenSmiles: CCNc1ncnc2c1ccn2[C@@H]1C[C@@]2(CO[C@@H](c3ccc4cc(Br)c(N)nc4c3)C2)[C@@H](O)[C@H]1O
experimentalSystem: Protein arginine N-methyltransferase 5 (Homo sapiens, UniProt O14744)
IC50: ≤ 100 nM

Field request: IC50 | item: `Nc1ncnc2c1ccn2[C@@H]1C[C@H](CCc2ccc3cc4c(nc3c2)N[C@@H](C2CC2)C4)[C@@H](O)[C@H]1O`
< 1 nM

Field request: IC50 | item: `Cn1ccc(-c2cn(-c3cncc(COc4ccc5ccc(N6CCC6=O)nc5c4)c3)c3ncnc(N)c23)n1`
> 1000 nM

Field request: IC50 | item: `Cn1c(N)nc2cc(CC[C@H]3C[C@@H](n4ccc5c(N)ncnc54)[C@H](O)[C@@H]3O)ccc2c1=O`
< 1 nM

Which IC50 is listed for `Nc1ncnc2c1ccn2[C@@H]1C[C@H](CCc2ccc3cc4c(nc3c2)N[C@H](C2CCC2)CC4)[C@@H](O)[C@H]1O` ?
1 to 100 nM
